src = ChEMBL document CHEMBL1795223

Species on record: Sus scrofa
EXPERIMENT: Inhibition of H+/K+ATPase in pig gastric microsome assessed as liberation of inorganic phosphate using ATP at 10 uM relative to control
Assay type: microsomes
PARTICULARS: Stomach
// inhibition lookup, one value per entry

COMPOUND: COc1cc2nc([S+]([O-])Cc3ncc(C)c(OC)c3C)[nH]c2cc1NC(=O)C1CC1 (stereo not drawn)
inhibition (%): 16
--
COMPOUND: CCCN(CCC)c1cc2nc([S+]([O-])Cc3nccc(OC)c3OC)[nH]c2cc1NC(=O)C1CC1 (stereo not drawn)
inhibition (%): 11
--
COMPOUND: COc1cc2nc([S+]([O-])Cc3nccc(OC)c3OC)[nH]c2cc1NC(=O)C1CC1 (stereo not drawn)
inhibition (%): 16
--
COMPOUND: COc1ccnc(C[S+]([O-])c2nc3cc(N4CCCCC4)c(NC(=O)C(F)(F)F)cc3[nH]2)c1OC (stereo not drawn)
inhibition (%): 38
--
COMPOUND: COc1cc2nc([S+]([O-])Cc3ncc(C)c(OC)c3C)[nH]c2cc1NC(=O)c1ccco1 (stereo not drawn)
inhibition (%): 13
--
COMPOUND: CCOC(=O)N1CCN(c2cc3nc([S+]([O-])Cc4ncc(C)c(OC)c4C)[nH]c3cc2NC(C)=O)CC1 (stereo not drawn)
inhibition (%): 15
--
COMPOUND: COCCCOc1ccnc(C[S+]([O-])c2nc3ccccc3[nH]2)c1C (stereo not drawn) [RABEPRAZOLE SODIUM]
inhibition (%): 90
--
COMPOUND: COc1c(C)cnc(C[S+]([O-])c2nc3cc(Oc4ccccc4)c(NC(=O)c4ccco4)cc3[nH]2)c1C (stereo not drawn)
inhibition (%): 48

----------
EXPERIMENT: Inhibition of H+/K+ATPase in pig gastric microsome assessed as liberation of inorganic phosphate using ATP
Format: microsomes, Sus scrofa, Stomach
PARAMETER: IC50 (µM)

MOLECULE: COc1ccc2[nH]c([S+]([O-])Cc3ncc(C)c(OC)c3C)nc2c1 (stereo not drawn) [OMEPRAZOLE]
PARAMETER: IC50
UNITS OF MEASURE: µM
RECORDED VALUE: 18
//
MOLECULE: COCCCOc1ccnc(C[S+]([O-])c2nc3ccccc3[nH]2)c1C (stereo not drawn) [RABEPRAZOLE SODIUM]
PARAMETER: IC50
UNITS OF MEASURE: µM
RECORDED VALUE: 1.5
//
MOLECULE: CCCN(CCC)c1cc2nc([S+]([O-])Cc3ncc(C)c(OC)c3C)[nH]c2cc1NC(C)=O (stereo not drawn)
PARAMETER: IC50
UNITS OF MEASURE: µM
RECORDED VALUE: 16
